- TESTED SYSTEM: endothiapepsin (Cryphonectria parasitica)
- Construct: Endothiapepsin was purified from Suparen; purchased DSM Food Specialties, Heerlen, The Netherlands (kindly provided) Suparen
- Sequence (P11838 90-419): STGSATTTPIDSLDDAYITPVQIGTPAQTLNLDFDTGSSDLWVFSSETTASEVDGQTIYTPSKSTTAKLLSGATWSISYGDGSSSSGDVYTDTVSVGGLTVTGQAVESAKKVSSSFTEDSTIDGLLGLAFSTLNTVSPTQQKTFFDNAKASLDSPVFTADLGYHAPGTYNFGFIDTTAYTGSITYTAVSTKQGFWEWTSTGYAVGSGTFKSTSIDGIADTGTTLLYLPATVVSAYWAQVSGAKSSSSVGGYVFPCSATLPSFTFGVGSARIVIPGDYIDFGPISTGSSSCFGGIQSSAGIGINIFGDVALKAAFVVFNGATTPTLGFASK
- PROTOCOL NOTES: Fluorescence-based enzymatic inhibition assay (adapted from the HIV protease assay)
- Assay type: biochemical
- STUDY CONDITIONS: obtained from the IC50 values using the Cheng–Prusoff equation

MOLECULE: N[C@@H](Cc1c[nH]c2ccccc12)C(=O)N/N=C/c1ccc(C(F)(F)F)cc1 [compound 2]
TESTED SYSTEM: endothiapepsin (Cryphonectria parasitica)
LE (ligand efficiency): 0.28

MOLECULE: N[C@@H](Cc1c[nH]c2ccccc12)C(=O)N/N=C/c1ccccc1Br [compound 6]
TESTED SYSTEM: endothiapepsin (Cryphonectria parasitica)
LE (ligand efficiency): 0.26

MOLECULE: Cc1ccccc1/C=N/NC(=O)[C@@H](N)Cc1c[nH]c2ccccc12 [compound 7]
TESTED SYSTEM: endothiapepsin (Cryphonectria parasitica)
LE (ligand efficiency): 0.26

MOLECULE: Cc1cccc(C)c1/C=N/NC(=O)[C@@H](N)Cc1c[nH]c2ccccc12 [compound 8]
TESTED SYSTEM: endothiapepsin (Cryphonectria parasitica)
LE (ligand efficiency): 0.26

MOLECULE: N[C@@H](Cc1c[nH]c2ccccc12)C(=O)N/N=C/c1cccc(C(F)(F)F)c1 [compound 3]
TESTED SYSTEM: endothiapepsin (Cryphonectria parasitica)
LE (ligand efficiency): 0.20

MOLECULE: N[C@@H](Cc1c[nH]c2ccccc12)C(=O)N/N=C/c1ccccc1 [compound 9]
TESTED SYSTEM: endothiapepsin (Cryphonectria parasitica)
LE (ligand efficiency): 0.27

MOLECULE: Cc1cccc(/C=N\NC(=O)[C@@H](N)Cc2c[nH]c3ccccc23)c1O [compound 5]
TESTED SYSTEM: endothiapepsin (Cryphonectria parasitica)
LE (ligand efficiency): 0.26

MOLECULE: N[C@@H](Cc1c[nH]c2ccccc12)C(=O)N/N=C/c1ccccc1F [compound 4]
TESTED SYSTEM: endothiapepsin (Cryphonectria parasitica)
LE (ligand efficiency): 0.27
